# System: SF-295 CNS
# Test name: NCI tumour cell line growth inhibition, 48 h
Observable: TGI

Worked set:
{"Compound": "Nc1cc2c3c(cccc3c1)C(=O)N(CCN1CCN(CCN3C(=O)c4cccc5cc(N)cc(c45)C3=O)CC1)C2=O", "Test result": "> 100 µM"}
{"Compound": "NC(N)=NCCCS(=O)(=O)Nc1ccc(Nc2c3ccccc3nc3cc([N+](=O)[O-])ccc23)cc1", "Test result": "59 µM"}
{"Compound": "CC(C)(C)OC(=O)N1CCC[C@H]1CSC[C@@H]1CCCN1C(=O)OC(C)(C)C", "Test result": "> 100 µM"}
{"Compound": "Cc1ccc(NC(=O)CCC(=O)C2CC(=O)CCC2=O)cc1C (stereo not given)", "Test result": "> 100 µM"}

// `O=C1c2ccccc2-c2ccc(N(Cc3ccc(Br)cc3)Cc3ccc(Br)cc3)cc21` : TGI value = > 100 µM

---

# Test system: K-562 leukemia
# Test name: NCI tumour cell line growth inhibition, 48 h
Catalogue of TGI values

// COc1cc(-c2c(C(C)=O)c(-c3ccccc3)n(C3OC(COC(C)=O)C(OC(C)=O)C(OC(C)=O)C3OC(C)=O)c(=S)c2C#N)ccc1O (stereo unspecified) : TGI value = > 100 µM

// `CC/C(=C(/CC)c1ccc(OP(=O)([O-])[O-])cc1)c1ccc(OP(=O)([O-])[O-])cc1.N.N.N.N.[Pt+4].[Pt+4]` : TGI value = > 100 µM

// `N=C1SCCS1` : TGI value = > 100 µM

// CNC1=C(C)C(=O)C2=C(C1=O)C(COC(N)=O)C1(OC)C3NC3CN21 (stereo unspecified) : TGI value = > 100 µM

// `CC(=O)Nc1ccccc1S(=O)(=O)c1c(-c2c(C)c(Cl)c(C)c(Cl)c2C)noc1C` : TGI value = > 100 µM

// `CCC/C(Cl)=N/OC(=O)Nc1cccc(F)c1` : TGI value = 8.87 µM

// CCOC(=O)C12CN(C34CC5CC(CC(C5)C3)C4)CC(C(=O)OCC)(C1=O)C(c1ccccc1)OC2c1ccccc1 (stereo unspecified) : TGI value = > 100 µM

// CC1(C)OCC(C2OC(On3nnc4ccc(Cl)cc43)C3OC(C)(C)OC23)O1 (stereo unspecified) : TGI value = > 100 µM

---

# Tested on: SK-OV-3 ovarian
# Test name: NCI tumour cell line growth inhibition, 48 h; in the data active = GI50 below about 0.43 µM; inactive = the rest
Outcome (select one): 1 (yes) for active, 0 (no) for inactive

Solved entries (count: 8):
{"Molecule": "COc1cc(-c2cn(-c3ccc(Cl)cc3)c(=O)n2-c2ccccc2)cc(OC)c1OC", "Target or system": "SK-OV-3 ovarian", "Category": "0 (no)"}
{"Molecule": "Cn1cc(-c2ccc3c(c2)ncn3-c2ccc(CC(=O)Nc3cc(C(C)(C)C)on3)cc2)cn1", "Target or system": "SK-OV-3 ovarian", "Category": "0 (no)"}
{"Molecule": "COc1cc2nc(-c3ccc(Cl)cc3)cc(OCCCN3CCC(O)CC3)c2cc1OC", "Target or system": "SK-OV-3 ovarian", "Category": "0 (no)"}
{"Molecule": "C[C@@H](Oc1cc(-n2cnc3ccc(OCC4CCN(C)CC4)cc32)sc1C(N)=O)c1ccccc1C(F)(F)F", "Target or system": "SK-OV-3 ovarian", "Category": "1 (yes)"}
{"Molecule": "CC/C(=C(/CC)c1ccc(OP(=O)([O-])[O-])cc1)c1ccc(OP(=O)([O-])[O-])cc1.N.N.N.N.[Pt+4].[Pt+4]", "Target or system": "SK-OV-3 ovarian", "Category": "0 (no)"}
{"Molecule": "O=C(/C=C/c1cccnc1)/C=C/c1cccnc1", "Target or system": "SK-OV-3 ovarian", "Category": "0 (no)"}
{"Molecule": "O=C1c2cccnc2-c2nc(-c3ccccc3)cc3c2c1nc1ccccc13", "Target or system": "SK-OV-3 ovarian", "Category": "0 (no)"}
{"Molecule": "C=C(CNCCc1ccc(O)cc1)[C@@H]1CC[C@]2(CO)CC[C@]3(C)[C@H](CC[C@@H]4[C@@]5(C)CCC(NCCO)C(C)(C)[C@@H]5CC[C@]43C)[C@@H]12 (stereo partly drawn)", "Target or system": "SK-OV-3 ovarian", "Category": "0 (no)"}

Exercise: How was `COc1cc2c(c(Br)c1N)-c1cc(Br)c(N)cc1C2=O` classified in this test?
Solution: 0 (no)

---

# Tested on: BT-549 breast
# Test name: NCI tumour cell line growth inhibition, 48 h
Observable: TGI

Worked set:
{"Compound": "c1ncc(C23C4C5C6C4C2C6C53)[nH]1 (stereo not given)", "Observable": "TGI", "Test result": "> 100 µM"}
{"Compound": "CCOC(=O)c1cc(NC(=O)c2ccccc2)c(=O)n2c(cc3c(Cl)cccc32)c1O", "Observable": "TGI", "Test result": "> 100 µM"}
{"Compound": "CC(=O)/C(=C\\n1c(=S)[nH]c2ccc([N+](=O)[O-])cc21)C(=O)Nc1ccccc1C", "Observable": "TGI", "Test result": "> 100 µM"}
{"Compound": "COc1cc2nc(-c3ccc(Cl)cc3)cc(OCCCN3CCC(O)CC3)c2cc1OC", "Observable": "TGI", "Test result": "13.3 µM"}
{"Compound": "NC(N)=NCCCS(=O)(=O)Nc1ccc(Nc2c3ccccc3nc3cc([N+](=O)[O-])ccc23)cc1", "Observable": "TGI", "Test result": "94.4 µM"}

// `CCCCCCCCCCCCCCCc1ccc(C(=O)C[n+]2ccccc2)cc1` : TGI value = 12.3 µM

// COC1(CCO)CC=CCC1(CCO)OC (stereo not given) : TGI value = > 100 µM

// C=C1C(=O)OC2C3C(=C)[C@@H](OC(C)=O)CC3C(C)=CC(OC(=O)C(C)(O)C(C)OC(C)=O)[C@@H]12 (stereo not given in full) : TGI value = 26.7 µM

---

# Test system: A498 renal
# Test name: NCI tumour cell line growth inhibition, 48 h; in the data active means GI50 below about 0.43 µM; inactive means the rest
Outcome (select one): t = active, f = inactive

Solved entries (count: 5):
{"Compound": "COc1cc2c(c(Br)c1N)-c1cc(Br)c(N)cc1C2=O", "Target or system": "A498 renal", "Category": "f"}
{"Compound": "C=C1CCC2C3(C)COC(c4cccc(Cl)c4)OC3CCC2(C)C1/C=C/C1=CCOC1=O (stereo unspecified)", "Target or system": "A498 renal", "Category": "f"}
{"Compound": "Cn1cc(-c2ccc3c(c2)ncn3-c2ccc(CC(=O)Nc3cc(C(C)(C)C)on3)cc2)cn1", "Target or system": "A498 renal", "Category": "t"}
{"Compound": "CC/C(=C(/CC)c1ccc(OP(=O)([O-])[O-])cc1)c1ccc(OP(=O)([O-])[O-])cc1.N.N.N.N.[Pt+4].[Pt+4]", "Target or system": "A498 renal", "Category": "f"}
{"Compound": "CCN(CC)c1ccc(/C=C/C2=[N+](C)c3ccccc3C2(C)C)cc1", "Target or system": "A498 renal", "Category": "f"}

Exercise: How was `Nc1nccc(C#Cc2cncnc2Nc2ccc(OCc3cccc(F)c3)c(Cl)c2)n1` classified in this test?
Solution: f

---

# Test system: NCI-H226 lung
# Test name: NCI tumour cell line growth inhibition, 48 h
Where a SMILES comes first, the peptide text is derived from it. The star is where a group is joined. Cbz = O=C(OCc1ccccc1)*; Boc = CC(C)(C)OC(=O)*; OBn = c1ccc(CO*)cc1
Observable: TGI

Worked set:
{"Compound": "Cc1ccc(NC(=O)CCC(=O)C2CC(=O)CCC2=O)cc1C (configuration not stated)", "TGI": "> 100 µM"}
{"Compound": "COC(=O)[C@H]1[C@H](OC(=O)[C@@H](OC)c2ccccc2)ON2CC[C@@H](OC(=O)c3ccccc3)[C@H]12", "TGI": "> 100 µM"}
{"Compound": "C=C(CNCCc1ccc(O)cc1)[C@@H]1CC[C@]2(CO)CC[C@]3(C)[C@H](CC[C@@H]4[C@@]5(C)CCC(NCCO)C(C)(C)[C@@H]5CC[C@]43C)[C@@H]12 (some centres not stated)", "TGI": "4.31 µM"}
{"Compound": "C=C1CCC2C3(C)COC(c4cccc(Cl)c4)OC3CCC2(C)C1/C=C/C1=CCOC1=O (configuration not stated)", "TGI": "> 100 µM"}
{"Compound": "CC(=O)OCC1OC(n2cnc3c(I)nc(I)nc32)C(OC(C)=O)C1OC(C)=O (configuration not stated)", "TGI": "35.5 µM"}
{"Compound": "c1ncc(C23C4C5C6C4C2C6C53)[nH]1 (configuration not stated)", "TGI": "> 100 µM"}

// COC(=O)C(CCCCNC(=O)OCc1ccccc1)NC(=O)C(CCC(=O)OCc1ccccc1)NC(=O)OC(C)(C)C (configuration not stated) (Boc-Glu(OBn)-Lys(Cbz)-OMe; configuration not given here) : TGI value = > 100 µM

Every entry's value here was drawn from PubChem BioAssay (NCI).
